Tested on: SN12C renal
Assay: NCI tumour cell line growth inhibition, 48 h
For each of the molecules below, state its TGI.

// below: answered molecules
Molecule: O=S(=O)(O)CCS
TGI: > 100 µM

Molecule: NC(=O)c1[nH]nc(C2OC(CO)C(O)C2O)c1O (centres undefined)
TGI: 819 µM

Molecule: c1ccc2nc3[nH]c4ccccc4c3cc2c1
TGI: 3.34 µM

Molecule: COc1ncc(-c2nc3c(n2C(C)C)[C@H](c2ccc(Cl)cc2)N(c2cc(Cl)cn(C)c2=O)C3=O)c(OC)n1
TGI: > 100 µM

Molecule: O=c1cccc(C#Cc2ccccc2)o1
TGI: > 53.2 µM

Batch: TGI for all items listed.
1. O=C([O-])c1ccc2c(c1)-c1nc-2nc2[n-]c(nc3nc(nc4[n-]c(n1)c1ccc(C(=O)[O-])cc41)-c1cc(C(=O)[O-])ccc1-3)c1ccc(C(=O)[O-])cc21.[Fe+2]
2. O=C(O)CCC1COc2ccccc2O1 (centres undefined)
3. Cc1ccc(-c2ccc(Nc3c4ccccc4nc4ccccc34)cc2)cn1

Result ::
1. > 50 µM
2. > 10 µM
3. 15.3 µM

* * *

System: SNB-75 CNS
Assay: NCI tumour cell line growth inhibition, 48 h; in the data active = GI50 below about 0.43 µM; inactive = the rest
# output must be one of active, inactive

Compound: Nc1c(C(=O)c2cccc(OCCN3CCOCC3)c2)cnn1-c1ccc(F)cc1
Class Label: inactive

Compound: N#CC1C(=N)Cc2ccccc2-c2ccccc21 (stereo unspecified)
Class Label: inactive

Compound: Nc1nc2ccc([C@@H]3Nc4ccc5[nH]ncc5c4[C@H]4[C@H]5CCC(C5)[C@H]43)cc2s1
Class Label: active

Compound: COc1ccc2cc(C(=O)/C=C/c3cccc(Cl)c3Cl)ccc2c1
Class Label: inactive

Compound: CCC(=O)OC1CCn2c1nc1c2C(=O)C(C)=C(N2CC2)C1=O (stereo unspecified)
Class Label: active

Compound: CC[N+](CC)=c1ccc2nc3c(cc(NCc4ccccc4)c4ccccc43)oc-2c1
Class Label: active

Compound: COc1c2ccccc2c(O)c2c(=O)c(C(=O)O)cn(C)c12
Class Label: inactive

Compound: CC(CN)[C@@H]1CC[C@]2(CO)CC[C@]3(C)[C@H](CC[C@@H]4[C@@]5(C)CCC(NCCO)C(C)(C)[C@@H]5CC[C@]43C)[C@@H]12 (stereo partly specified)
Class Label: inactive

Compound: COc1cc(NN=C(c2ccc(O)cc2)c2ccc(O)cc2)c([N+](=O)[O-])cc1[N+](=O)[O-]
Class Label: inactive

Compound: Cc1cc(S(=O)(=O)Nc2nc3ccsc3c(=O)n2Cc2ccco2)c(S)cc1Cl
Class Label: inactive

Query :: Given `COc1cc2cc(Oc3ccc(NC(=O)Nc4ccccc4)cc3)c(C)nc2cc1OCCN1CCCCC1` , state the outcome it received in this test.
Result :: inactive

Query :: Please let me know the test result on file for `O=C1C(Cl)=C(Nc2ccc3cn[nH]c3c2)C(=O)c2ccccc21` .
Result :: inactive

* * *

Test system: NCI-H23 lung
Experiment: NCI tumour cell line growth inhibition, 48 h
Consider the following compounds; for each one, report its GI50.

Smiles: COc1cc(NN=C(c2ccc(O)cc2)c2ccc(O)cc2)c([N+](=O)[O-])cc1[N+](=O)[O-]
Endpoint Name: GI50
Test Value: 13500 nM

Smiles: O=C1C(Cl)=C(Nc2ccc3cn[nH]c3c2)C(=O)c2ccccc21
Endpoint Name: GI50
Test Value: 413 nM

Smiles: C=C(CNCCc1ccc(O)cc1)[C@@H]1CC[C@]2(CO)CC[C@]3(C)[C@H](CC[C@@H]4[C@@]5(C)CCC(=O)C(C)(C)[C@@H]5CC[C@]43C)[C@@H]12
Endpoint Name: GI50
Test Value: 1690 nM

// moving on: another record for GI50
Query :: For `Nc1ccn([C@H]2C[C@@H](O)[C@@H](CO)S2)c(=O)n1` , write its GI50.
Result :: > 100000 nM

* * *

Test system: OVCAR-4 ovarian
Experiment: NCI tumour cell line growth inhibition, 48 h
Endpoint Name: TGI

Compound: COc1c2ccccc2c(O)c2c(=O)c(C(=O)O)cn(C)c12
Test Value: > 100 µM

Compound: N=c1c2c3n(c4c(=O)n(-c5ccccc5)c(=S)n(c(=O)n1-c1ccccc1)c24)CCCCC3
Test Value: > 100 µM

Compound: OC(c1cccs1)c1cc2ccccc2s1 (stereo not given)
Test Value: > 10 µM

The following compounds each have a reported value; give each one's TGI.
1. CC1C=C(OC(=O)c2ccccc2)C(=O)C(n2cc(F)c(=O)n(C(=O)c3ccccc3)c2=O)O1 (stereo not given)
2. Cc1cc(S(=O)(=O)Nc2nc3ccsc3c(=O)n2Cc2ccco2)c(S)cc1Cl
3. N[C@@H]1c2c(Br)sc(Br)c2[C@H](O)[C@@H]1O
4. Cc1ccc(S(=O)(=O)N2CCSCCSCCN(S(=O)(=O)c3ccc(C)cc3)CCN(S(=O)(=O)c3ccc(C)cc3)CC2)cc1

Result ::
1: > 100 µM; 2: > 100 µM; 3: > 100 µM; 4: > 100 µM

* * *

System: OVCAR-5 ovarian
Experiment: NCI tumour cell line growth inhibition, 48 h
Endpoint Name: TGI

Compound: Cc1nc2c(nc1C)-c1c(c3c(n1Cc1ccccc1)C(=O)CCC3)C(=O)C2=O
TGI: > 100 µM

Hey, quick one: what's TGI for each of these?
1. N#CCCC(CC#N)N1CCN(CCO)CC1 (centres undefined)
2. Cc1ccc(C(=O)CC(Cl)=C(Cl)Cl)cc1
3. CC(C)CCCC(C)[C@H]1CC[C@H]2[C@@H]3CC[C@H]4C[C@@H](CCC=C(c5cc(Cl)c(O)c(C(=O)OC(C)(C)C)c5)c5cc(Cl)c(O)c(C(=O)OC(C)(C)C)c5)CC[C@]4(C)[C@H]3CC[C@]12C (some centres undefined)
4. CCCCCCCCOc1ccc(/C=N/Nc2cc(C)nc3ccc(Cl)cc23)cc1
5. C/C=C(/C)C(=O)O[C@@H]1c2c(C)coc2C[C@H]2CC[C@H](O)[C@H](C)[C@]21C

Result ::
> 100 µM
> 100 µM
> 50 µM
3.2 µM
> 100 µM

Quick batch: TGI for everything below.
1. O=S(=O)(O)CCS
2. COC(=O)C1=NN2c3ccccc3C(=O)OCCC2C1 (centres undefined)
3. Cc1ccc(S(=O)(=O)CNC(=S)CCCC(=S)NCS(=O)(=O)c2ccc(C)cc2)cc1

Result ::
1: > 100 µM; 2: > 100 µM; 3: > 100 µM

Provide TGI values for the following items, in order.
1. c1ccc2c(c1)CCc1c-2n(CCN2CCCCC2)c2ccccc12
2. N/N=C1\c2ccccc2C2/C(=N\N)c3ccccc3C12 (centres undefined)
3. Cn1c(-c2csc(-c3ccc(Cl)cc3)n2)n[nH]c1=S
4. NCCNCC(O)CO (centres undefined)
5. CC12O[C@H](c3ccccc3)[C@H](c3ccccc3)N1C(=O)C1(C(=O)OCc3ccccc3)CC12 (some centres undefined)
6. COc1cc(/C=C/C(=O)c2cc(F)c(Cl)cc2Cl)cc(OC)c1OC
7. CCCCCCCCCCCCCC/C(C(=O)OC)=C(/O)C(=O)OCC
8. O=C(O)Cc1ccc(N2N=C(c3ccccc3)CC2=O)cc1

Result ::
1: 30.2 µM; 2: > 100 µM; 3: > 100 µM; 4: > 100 µM; 5: > 100 µM; 6: > 100 µM; 7: 70.1 µM; 8: > 100 µM

Hello, I would appreciate it if you could give TGI for each entry below.
1. FC(F)(F)c1ccc2c(c1)nc(Cc1ccccc1)n2C[C@@H]1CCCN2CCCCC12 (some centres undefined)
2. N#C/C(=C/C=C(\Cl)c1ccc(Cl)cc1)C(N)=O
3. CC1=C(C(=O)Nc2ccccc2C)C(c2ccc([N+](=O)[O-])cc2)C(C(=O)Nc2ccccc2C)=C(C)N1
4. CCOP(=O)(CC(=O)C1=C(O)C(CCCNC(=O)OC(C)(C)C)N(Cc2ccc(OC)c(OC)c2)C1=O)OCC (centres undefined)
5. CC1=C/C(=N/N2C(=O)/C(=C/c3ccc(Cl)cc3)N=C2c2ccccc2)CC(C)(C)C1

Result ::
31.7 µM
17.7 µM
> 100 µM
> 100 µM
> 100 µM

Need TGI for each of these compounds.
1. COc1ccc(-c2cc(-c3ccc(Nc4ccnc5cc(C(F)(F)F)ccc45)cc3)[nH]c(=O)c2C#N)c2ccccc12
2. COC(=O)C1OC(O[C@H]2CC[C@]3(C)[C@H]4CC=C5[C@@H]6CC(C)(C)CC[C@]6(C(=O)OC)[C@H](O)C[C@@]5(C)[C@]4(C)CC[C@H]3C2(C)C)C(O)C(O)C1O (some centres undefined)

Result ::
1: > 100 µM; 2: 26 µM

* * *

So I've got a bunch of molecules here, and I need their TGI values.
Test system: COLO 205 colon
Assay: NCI tumour cell line growth inhibition, 48 h

Molecule: O=c1cccc(C#Cc2ccccc2)o1
Endpoint Name: TGI
Test Value: > 44.9 µM

Molecule: COc1ccc(-c2cnc(-c3ccc(F)cc3)[nH]2)cc1
Endpoint Name: TGI
Test Value: 7.59 µM

Molecule: C/C(=N\NC(=O)CC(=O)Nc1ccc(Cl)cc1)c1cc2ccccc2oc1=O
Endpoint Name: TGI
Test Value: > 100 µM

Molecule: Cc1ccc(NC(=O)CC(=O)n2nc(-c3ccccc3)c(N=Nc3ccc(Cl)cc3)c2-c2ccccc2)cc1
Endpoint Name: TGI
Test Value: > 100 µM

Molecule: O=[N+]([O-])CC(SCc1ccccc1)c1ccc2c(c1)OCO2 (stereo not given)
Endpoint Name: TGI
Test Value: 21.1 µM

Hi! Can you tell me TGI for each of these molecules?
1. CCOP(=O)(CC(=O)C1=C(O)C(CCCNC(=O)OC(C)(C)C)N(Cc2ccc(OC)c(OC)c2)C1=O)OCC (stereo not given)
2. C=C(C)C1Cc2c(cc(O)c3c(=O)c4ccccc4n(C)c23)O1 (stereo not given)
3. c1ccc2c(c1)CCc1c-2n(CCN2CCCCC2)c2ccccc12
4. Oc1cc(Cl)cc2cc(Br)cnc12

Result ::
1. > 100 µM
2. > 100 µM
3. 26.2 µM
4. > 100 µM

Give me TGI for each of these molecules, listed below.
1. CCCCCCCCCCCCCC/C(C(=O)OC)=C(/O)C(=O)OCC
2. N#C/C(=C/C=C(\Cl)c1ccc(Cl)cc1)C(N)=O
3. Cc1ccc(S(=O)(=O)CNC(=S)CCCC(=S)NCS(=O)(=O)c2ccc(C)cc2)cc1
4. O=C(O)c1cc2ccccc2c(N=Nc2c([N+](=O)[O-])cc([N+](=O)[O-])cc2S(=O)(=O)O)c1O
5. C#CC(O)/C=C/CCCCCCC#CC/C=C\CC#CCCCCCC/C=C/C(O)C#C (stereo not given)

Result ::
1: > 100 µM; 2: > 55.8 µM; 3: > 100 µM; 4: > 100 µM; 5: 4.29 µM

Batch lookup, TGI per entry.
1. COC(=O)c1ccccc1NC(=O)C(=O)CC(=O)c1ccccc1NC1=CC(=O)C(=O)c2ccccc21
2. Cn1c(N2CCCC2)c(C=O)c(=O)n(C)c1=O

Result ::
1. 53.1 µM
2. > 100 µM
